# System: A549-ACE2 infected with SARS-CoV-2
# protocol_text: morphology score (similarity to uninfected cells); higher = more like uninfected cells
# setup_conditions: 3 µM; 24 h
Measured morphology score by item
endpoint_name: morphology score

In [3]: df
Out[3]:
                                   compound  obs_value
0  CCOC(=O)c1c(C)[nH]c2ccc3c(c12)CN1CCc2cc(OC)ccc2C1O3 (stereo not drawn)       0.69
1  N=C(NCCCCCCNC(=N)NC(=N)Nc1ccc(Cl)cc1)NC(=N)Nc1ccc(Cl)cc1      -0.05
2   C[S+]([O-])CCCCN=C=S (stereo not drawn)      -0.05
3  NC(=O)c1cnc(N[C@@H]2CCCC[C@@H]2N)nc1Nc1cccc(-n2nccn2)c1       0.74
4  FC(F)(F)c1cc(CO[C@H]2CCCN[C@H]2c2ccccc2)cc(C(F)(F)F)c1       0.72
5  c1ccc2c(CCNc3ccc(Nc4ccncc4)cc3)c[nH]c2c1       0.58
6  OC(c1cc(C(F)(F)F)nc2c(C(F)(F)F)cccc12)C1CCCCN1 (stereo not drawn)       0.84
7  O=C(OC(C(F)(F)F)C(F)(F)F)N1CCN(Cc2cccc(Oc3ccccc3)c2)CC1       0.31

---

Measured cell viability, listed per entry for reference.
# Tested on: Calu-3
# protocol_text: cell viability relative to DMSO; higher = less toxic
# setup_conditions: 72 h; 1000 nM
endpoint_name: cell viability (%)

In [3]: df
Out[3]:
                                   compound   endpoint_name  unit_of_measurement  obs_value
0  CCOC(=O)Nc1cc2c(c(N)n1)N=C(c1ccccc1)[C@H](C)N2  cell viability                    %       40.7
1     NCC(O)c1ccc(O)cc1 (centres undefined)  cell viability                    %        108
2              COc1ccc2ccc(=O)oc2c1CC=C(C)C  cell viability                    %        114
3                         C#CCN(C)Cc1ccccc1  cell viability                    %       89.3
4  N#Cc1ccccc1OCC(O)CNCCNC(=O)Nc1ccccc1 (centres undefined)  cell viability                    %       92.8
5           CC(C)Cn1cnc2c1c(=O)n(C)c(=O)n2C  cell viability                    %        102
6  COc1cccc(OCCCN)c1-c1cc(Nc2cnc(C#N)cn2)n[nH]1  cell viability                    %       48.1
7  CCOC(=O)c1c(C)[nH]c2ccc3c(c12)CN1CCc2cc(OC)ccc2C1O3 (centres undefined)  cell viability                    %       98.4
8  NC(=O)c1cn([C@@H]2O[C@H](CO)[C@@H](O)[C@H]2O)c2ncnc(N)c2c1=O  cell viability                    %       52.7

---

# Test system: HepG2
# protocol_text: cell viability relative to DMSO; higher = less toxic
# setup_conditions: 72 h; 100 nM
endpoint_name: cell viability (%)

molecule	obs_value
Oc1ccc(C2CNCCc3c2cc(O)c(O)c3Cl)cc1 (configuration not stated) [fenoldopam]	95.3
NC(=O)c1cnc(N[C@@H]2CCCC[C@@H]2N)nc1Nc1cccc(-n2nccn2)c1	99.1
CCCC[C@H](NC(=O)[C@@H]1[C@@H]2[C@H](CN1C(=O)[C@@H](NC(=O)NC1(CS(=O)(=O)C(C)(C)C)CCCCC1)C(C)(C)C)C2(C)C)C(=O)C(=O)NC1CC1 [narlaprevir]	96.3
NC[C@H]1O[C@H](O[C@H]2[C@H](O)[C@@H](O[C@H]3O[C@H](CO)[C@@H](O)[C@H](N)[C@H]3O)[C@H](N)C[C@@H]2N)[C@H](N)C[C@@H]1O [tobramycin]	104
COc1ccc(/C=C/C(=O)/C=C(O)/C=C/c2ccc(OC)c(OC)c2)cc1OC [ASC-J9]	111
NC(=O)c1cn([C@@H]2O[C@H](CO)[C@@H](O)[C@H]2O)c2ncnc(N)c2c1=O [API-1]	84.9
CO[C@H]1O[C@@H]2O[C@@]3(C)CC[C@H]4[C@H](C)CC[C@@H]([C@H]1C)[C@@]24OO3 [artemether]	103

---

# Test system: HepG2
# protocol_text: cell viability relative to DMSO; higher = less toxic
# setup_conditions: 72 h; 10 nM
endpoint_name: cell viability (%)

                                    molecule  system_under_test  unit_of_measurement  obs_value
 0                                  NCC(=O)O              HepG2                    %         96
 1  O=[N+]([O-])c1cn2c(n1)OC[C@@H](OCc1ccc(-c3ccc(OC(F)(F)F)cc3)nc1)C2              HepG2                    %        108
 2  c1ccc2c(CCNc3ccc(Nc4ccncc4)cc3)c[nH]c2c1              HepG2                    %       99.5
 3      Cc1ccc(S(=O)(=O)n2c(N)nc3ccccc32)cc1              HepG2                    %        107
 4  Cc1c(I)c(=O)n(-c2ccccc2)n1C [iodoantipyrine]              HepG2                    %        102
 5  C[S+]([O-])CCCCN=C=S (centres undefined)              HepG2                    %       89.7
 6       CCCOC(=O)c1ccccc1 [propyl-benzoate]              HepG2                    %       98.2
 7  CN(C)CCn1cc(S(=O)(=O)c2cccc(F)c2)c2cccnc21              HepG2                    %        110
 8  CC(C)(C)OC(=O)c1ncn2c1[C@@H]1CCCN1C(=O)c1c(Br)cccc1-2              HepG2                    %       94.1
 9  COc1cc(C)[nH]c(=O)c1CNC(=O)c1c(C)n([C@H](C)C2CCOCC2)c2ccccc12              HepG2                    %       97.6
10  N#Cc1cnc2c(Cl)cc(NCc3cn(CCN4CCCCCC4)nn3)cc2c1Nc1ccc(F)c(Cl)c1              HepG2                    %        107
11  C1CCC(/N=C(\NC23CC4CC(CC(C4)C2)C3)N2CCOCC2)CC1              HepG2                    %        108
12  NC(=O)c1cn([C@@H]2O[C@H](CO)[C@@H](O)[C@H]2O)c2ncnc(N)c2c1=O              HepG2                    %       97.9
13  CN1C(=O)C(N2CCCCC2)S/C1=C\C(=O)O (centres undefined)              HepG2                    %        107
14  CCCC[C@@H](C=O)NC(=O)[C@H](CC(C)C)NC(=O)OCc1ccccc1              HepG2                    %       95.1
15                      CN1C(=O)OC(C)(C)C1=O              HepG2                    %        105
16  CC(C)[C@@H](C)/C=C/[C@@H](C)[C@H]1CC[C@H]2/C(=C/C=C3\C[C@@H](O)CC[C@@H]3C)CCC[C@]12C [dihydrotachysterol]              HepG2                    %       94.3
17  CCc1cnc(N2CCC(c3nc(COc4ccc(-n5cnnn5)cc4)cs3)CC2)nc1              HepG2                    %       94.6
18  CC(C)[C@](O)(c1ccc2cc(OC(F)F)c(OC(F)F)cc2c1)c1c[nH]nn1              HepG2                    %        104

---

# Test system: HepG2
# protocol_text: cell viability relative to DMSO; higher = less toxic
# setup_conditions: 72 h; 100 nM
endpoint_name: cell viability

In [3]: df
Out[3]:
                                   compound  system_under_test   endpoint_name  obs_value
0  Cc1ccc2c(c1)C(=O)[C@]1(O)CCN(c3ccccc3)C1=N2 (racemic) [blebbistatin-(+/-)]              HepG2  cell viability      98.3%
1  Cc1c(I)c(=O)n(-c2ccccc2)n1C [iodoantipyrine]              HepG2  cell viability        95%
2              COc1ccc2ccc(=O)oc2c1CC=C(C)C              HepG2  cell viability      98.8%
3  CS(=O)(=O)N(Cc1ccco1)C[C@@H](O)Cn1c2ccccc2c2ccccc21              HepG2  cell viability      97.2%
4     NCC(O)c1ccc(O)cc1 (centres undefined)              HepG2  cell viability      95.9%
5  N[C@@H]1CCCN(c2c(/C=C3\SC(=O)NC3=O)cccc2-c2ccccc2)C1              HepG2  cell viability      93.5%
6  CCOC(=O)Nc1cc2c(c(N)n1)N=C(c1ccccc1)[C@H](C)N2              HepG2  cell viability      24.1%
7           CCN1/C(=C/C(C)=O)Sc2ccc(OC)cc21              HepG2  cell viability        93%
8  C=C[C@H]1CN2CC[C@H]1CC2C(OC(=O)OCC)c1ccnc2ccc(OC)cc12 (stereo in doubt) [quinine-ethyl-carbonate]              HepG2  cell viability       100%
